# experimentalTarget: HLA-B*15:01
# measurementNotes: IEDB peptide-MHC binding, purified MHC/direct/fluorescence; filed as Kd, often an IC50 or EC50 that approximates it; bounds were set here for any values at or beyond the usual limits of such assays
# conditionParameters: source organism: Squirrelpox virus
pKd: −log10 of the molar value.
propertyLabel: pKd

> print(dat)
   biopolymersequence  readoutnumber
1           MACHRVLTY           6.98

====

# experimentalTarget: HLA-B*15:17
# measurementNotes: IEDB peptide-MHC binding, purified MHC/competitive/fluorescence; filed as Kd, often an IC50 or EC50 that approximates it; bounds were set here for any values at or beyond the usual limits of such assays
# conditionParameters: source organism: Zaire ebolavirus
pKd: −log10 of the molar value.
The sequences listed here are annotated with their pKd.
propertyLabel: pKd

> print(dat)
   biopolymersequence  result
1           TPSHYSGNI  ≤ 4.70
2           PQVLGGLSF  ≤ 4.70

====

# experimentalTarget: HLA-A*26:01
# measurementNotes: IEDB peptide-MHC binding, purified MHC/competitive/radioactivity; filed as Kd, often an IC50 or EC50 that approximates it; bounds were set here for any values at or beyond the usual limits of such assays
# conditionParameters: source organism: Dengue virus 4 Dominica/814669/1981
pKd: −log10 of the molar value.
propertyLabel: pKd

> print(dat)
   biopolymersequence  readoutnumber
1           ELIDGISLG           6.33

====

# experimentalTarget: HLA-B*15:01
# measurementNotes: IEDB peptide-MHC binding, purified MHC/competitive/radioactivity; filed as Kd, often an IC50 or EC50 that approximates it; bounds were set here for any values at or beyond the usual limits of such assays
# conditionParameters: source organism: Dengue virus 2 Jamaica/1409/1983
pKd: −log10 of the molar value.
propertyLabel: pKd

> print(dat)
   biopolymersequence  readoutnumber
1          LQGRGPLKLF           6.87
2           FGAIYGAAF           7.29

====

# experimentalTarget: HLA-A*69:01
# measurementNotes: IEDB peptide-MHC binding, purified MHC/direct/fluorescence; filed as Kd, often an IC50 or EC50 that approximates it; bounds were set here for any values at or beyond the usual limits of such assays
# conditionParameters: source organism: Cryptosporidium hominis
propertyLabel: Kd

> print(dat)
   biopolymersequence  experimentaltarget  propertylabel   result
1           FQWSDDPFI         HLA-A*69:01             Kd  ≥ 20 µM

====

# experimentalTarget: HLA-A*02:01
# measurementNotes: IEDB peptide-MHC binding, purified MHC/competitive/fluorescence; filed as Kd, often an IC50 or EC50 that approximates it; bounds were set here for any values at or beyond the usual limits of such assays
# conditionParameters: source organism: Orthohantavirus sinnombreense
pKd: −log10 of the molar value.
propertyLabel: pKd

> print(dat)
   biopolymersequence  result
1           YKSRCYVGL  ≤ 4.70

====

# experimentalTarget: HLA-A*69:01
# measurementNotes: IEDB peptide-MHC binding, purified MHC/direct/fluorescence; filed as Kd, often an IC50 or EC50 that approximates it; bounds were set here for any values at or beyond the usual limits of such assays
# conditionParameters: source organism: Mammarenavirus juninense
pKd: −log10 of the molar value.
propertyLabel: pKd

> print(dat)
   biopolymersequence  result
1           QVKRREGMF  ≤ 4.70
